From: patent US20050014952A1

Listed next: entries and their corresponding inhibition at 1 µM.
Target: androgen receptor (Rattus norvegicus, UniProt P15207)
Construct: 5 pmol androgen receptor LBD (Panvera); purchased Panvera
Assay Notes: Androgen Receptor Filtration Binding Assay ([3H] R1881 tracer)
Stated Conditions: @ 1 μM test compound; negative values indicate no antagonist activity; cmpd 4: two separate synthesis batches; cmpds 5 and 7: average of 2
Measure Name: inhibition at 1 µM (%)

1. N#Cc1ccc(NC(=O)C2CSC(c3cccc(F)c3)=N2)cc1C(F)(F)F (centres unmarked) [Cmpd #3] | 8.1
2. CC1(C)SC(c2ccc(F)cc2)=NC1C(=O)Nc1ccc([N+](=O)[O-])c(C(F)(F)F)c1 (centres unmarked) [Cmpd #20] | 29
3. CC1(C(=O)Nc2ccc([N+](=O)[O-])c(C(F)(F)F)c2)CSC(c2ccc(F)cc2)=N1 (centres unmarked) [compound 13] | 29
4. N#Cc1ccc(NC(=O)C2CSC(c3ccc(Cl)cc3)=N2)cc1C(F)(F)F (centres unmarked) [Cmpd #9] | 41.5
5. O=C(Nc1ccc(Cl)c(C(F)(F)F)c1)C1CSC(c2cccc(Cl)c2)=N1 (centres unmarked) [Cmpd #26] | 15
6. O=C(Nc1ccc(Cl)c(C(F)(F)F)c1)C1CSC(c2cccc(F)c2)=N1 (centres unmarked) [Cmpd #17] | -34
7. CC1(C(=O)Nc2ccc(Cl)c(C(F)(F)F)c2)CSC(c2ccc(F)cc2)=N1 (centres unmarked) [compound 12] | 52
8. O=C(Nc1cccc(C(F)(F)F)c1F)C1CSC(c2cccc(Cl)c2)=N1 (centres unmarked) [Cmpd #32] | 8.5
9. O=C(Nc1ccc(F)c(C(F)(F)F)c1)C1CSC(c2ccc(Cl)cc2)=N1 (centres unmarked) [Cmpd #14] | 1.5
10. CC1(C)SC(c2ccc(F)cc2)=NC1C(=O)Nc1ccc(Cl)c(C(F)(F)F)c1 (centres unmarked) [Cmpd #21] | 29
11. CC1(C)SC(c2ccc(Cl)cc2)=NC1C(=O)Nc1ccc(Cl)c(C(F)(F)F)c1 (centres unmarked) [Cmpd #22] | 0
12. O=C(Nc1ccc([N+](=O)[O-])c(C(F)(F)F)c1)C1CSC(c2ccc(Cl)cc2)=N1 (centres unmarked) [Cmpd #10] | 60.5
13. O=C(Nc1ccc(Cl)c(C(F)(F)F)c1)C1CSC(c2ccc(Cl)cc2)=N1 (centres unmarked) [Cmpd #11] | 30.5
14. O=C(Nc1ccc([N+](=O)[O-])c(C(F)(F)F)c1)C1CSC(c2cccc(Cl)c2)=N1 (centres unmarked) [Cmpd #30] | 7
15. O=C(Nc1ccc(Cl)cc1)C1CSC(c2ccc(Cl)cc2)=N1 (centres unmarked) [Cmpd #16] | 12
16. O=C(Nc1ccc(S(=O)(=O)C(F)(F)F)cc1)C1CSC(c2ccc(F)cc2)=N1 (centres unmarked) [Cmpd #28] | -6.3
17. CC1(C(=O)Nc2ccc(C#N)c(C(F)(F)F)c2)CSC(c2ccc(F)cc2)=N1 (centres unmarked) [Cmpd #33] | 27
18. O=C(Nc1cccc(C(F)(F)F)c1F)C1CSC(c2ccc(Cl)cc2)=N1 (centres unmarked) [Cmpd #24] | 0.74
19. O=C(Nc1ccc(Cl)c(C(F)(F)F)c1)C1CSC(c2ccc(F)cc2)=N1 (centres unmarked) [compound 5] | 12.3
20. O=C(Nc1cccc(C(F)(F)F)c1F)C1CSC(c2ccc(F)cc2)=N1 (centres unmarked) [Cmpd #25] | -8
21. N#Cc1ccc(NC(=O)C2CSC(c3ccc(F)cc3)=N2)cc1C(F)(F)F (centres unmarked) [Cmpd #1] | 28.5
22. O=C(Nc1ccc(S(=O)(=O)C(F)(F)F)cc1)C1CSC(c2cccc(Cl)c2)=N1 (centres unmarked) [Cmpd #31] | 10
23. N#Cc1ccc(NC(=O)C2CSC(c3cccc(Cl)c3)=N2)cc1C(F)(F)F (centres unmarked) [Cmpd #27] | 34
24. N#Cc1ccc(NC(=O)C2CSC(c3ccc(F)cc3)=N2)cc1 (centres unmarked) [Cmpd #2] | -26
25. O=C(Nc1ccc(F)c(C(F)(F)F)c1)C1CSC(c2cccc(F)c2)=N1 (centres unmarked) [Cmpd #18] | -19
26. CC1(C)SC(c2ccc(Cl)cc2)=NC1C(=O)Nc1cc(F)c(C#N)cc1F (centres unmarked) [Cmpd #23] | -5
27. O=C(Nc1ccc(S(=O)(=O)C(F)(F)F)cc1)C1CSC(c2ccc(Cl)cc2)=N1 (centres unmarked) [Cmpd #29] | 25
28. CC1(C)SC(c2ccc(F)cc2)=NC1C(=O)Nc1ccc(C#N)c(C(F)(F)F)c1 (centres unmarked) [Cmpd #19] | -1
29. O=C(Nc1ccc(F)c(C(F)(F)F)c1)C1CSC(c2ccc(F)cc2)=N1 (centres unmarked) [Cmpd #7] | -24.2

====

Target: androgen receptor (Rattus norvegicus, UniProt P15207)
Sequence (P15207 651-882 limits assumed): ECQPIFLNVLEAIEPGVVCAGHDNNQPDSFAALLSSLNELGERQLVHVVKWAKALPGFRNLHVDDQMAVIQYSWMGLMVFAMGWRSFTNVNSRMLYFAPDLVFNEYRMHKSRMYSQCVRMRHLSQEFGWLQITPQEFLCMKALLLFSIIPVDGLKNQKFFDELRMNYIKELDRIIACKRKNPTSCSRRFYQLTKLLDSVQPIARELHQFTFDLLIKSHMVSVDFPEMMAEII
Measure Name: IC50

1) CC1(C(=O)Nc2ccc([N+](=O)[O-])c(C(F)(F)F)c2)CSC(c2ccc(F)cc2)=N1 (stereo not drawn) | > 10 µM
2) O=C(Nc1ccc(Cl)c(C(F)(F)F)c1)C1CSC(c2ccc(Cl)cc2)=N1 (stereo not drawn) | 3.5 µM
3) CC1(C(=O)Nc2ccc(Cl)c(C(F)(F)F)c2)CSC(c2ccc(F)cc2)=N1 (stereo not drawn) | > 10 µM
